Assay system: T1, rat IL-17A (rat, UniProt Q61453 18-150, limits assumed)
T1 sequence (looked up): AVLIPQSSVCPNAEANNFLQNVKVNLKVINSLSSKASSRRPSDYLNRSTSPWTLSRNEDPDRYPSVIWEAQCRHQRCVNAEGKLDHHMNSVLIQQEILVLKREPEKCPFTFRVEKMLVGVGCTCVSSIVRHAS
Test method notes: ELISA, coated IL-17A
Endpoint name: OD (OD)
Kindly answer with a numeric value in OD, unit omitted.

For this binder ( 03C07 (VHH, Class 2) VHH: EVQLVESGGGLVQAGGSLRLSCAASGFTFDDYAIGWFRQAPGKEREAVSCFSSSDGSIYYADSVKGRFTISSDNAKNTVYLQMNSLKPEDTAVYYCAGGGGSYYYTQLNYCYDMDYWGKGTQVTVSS ), measured OD is 0.003

// recorded OD for 13E02 (VHH, Class 4; also called IL17MS13E02) VHH: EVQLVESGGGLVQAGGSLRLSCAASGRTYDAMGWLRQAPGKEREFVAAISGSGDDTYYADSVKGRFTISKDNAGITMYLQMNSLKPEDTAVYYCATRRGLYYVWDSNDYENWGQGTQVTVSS : 0.003

Sure, the documented OD for 09G10 (VHH, Class 2) VHH: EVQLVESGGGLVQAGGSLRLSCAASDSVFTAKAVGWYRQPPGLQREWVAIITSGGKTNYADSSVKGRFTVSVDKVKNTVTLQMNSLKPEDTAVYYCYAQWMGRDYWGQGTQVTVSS is 0.003

The measured OD associated with 11C08 (VHH, Class 4) VHH: EVQLVESGGGLVQAGGSLRLSCAASGVIFRLNAMGWYRAAPGKQRELVAIIVNGGSTNYADSVKGRFTISRDSAKNAVYLQMNSLKPEDTAVYYCYYNIPGDVYWGQGTQVTVSS reads 0.002
